# Test system: Mycobacterium tuberculosis
# assay info: Antitubercular activity against streptomycin-resistant Mycobacterium tuberculosis after 7 days by resazurin dye based colorimetric assay
# Type: functional
# condition: 168 h
quantity measured: log10 MIC (log10 of the value in µg/mL)
A difference of one corresponds to tenfold MIC; all values are log10 with MIC in µg/mL.

>  <compound smiles>
CC(=O)NC[C@H]1CN(c2ccc(N3CCOCC3)c(F)c2)C(=O)O1

>  <system under test>
Mycobacterium tuberculosis

>  <recorded value>
1.15

$$$$

Please give log10 MIC, item by item, for the list that follows.
1. NNC(=O)c1ccncc1
2. COc1c(N2C[C@@H]3CCCN[C@@H]3C2)c(F)cc2c(=O)c(C(=O)O)cn(C3CC3)c12
3. CC(C)c1ccc(-c2nc(CN3CCN(c4ccnc5cc(Cl)ccc45)CC3)no2)cc1
4. CO[C@H]1/C=C/O[C@@]2(C)Oc3c(C)c(O)c4c(O)c(c(/C=N/N5CCN(C)CC5)c(O)c4c3C2=O)NC(=O)/C(C)=C\C=C\[C@H](C)[C@H](O)[C@@H](C)[C@@H](O)[C@@H](C)[C@H](OC(C)=O)[C@@H]1C

[out]
1: 0.00; 2: -0.03; 3: 1.46; 4: -1.30

Cited source for all entries: ChEMBL document CHEMBL4308875
